Origin of values: paper PMC9638026

- TEST SYSTEM: TIRR (6-211)-His (UniProt Q9BRJ7 6-211)
- Sequence (Q9BRJ7 6-211): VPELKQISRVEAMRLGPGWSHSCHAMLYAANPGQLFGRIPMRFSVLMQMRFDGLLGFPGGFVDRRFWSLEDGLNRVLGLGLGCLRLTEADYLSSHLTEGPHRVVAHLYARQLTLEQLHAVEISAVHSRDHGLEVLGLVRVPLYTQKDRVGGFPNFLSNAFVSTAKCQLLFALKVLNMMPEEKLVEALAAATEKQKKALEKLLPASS
- METHOD DESCRIPTION: SPR; SPR: 20 mM HEPES pH 6, 300 mM NaCl, 0.05% P20, 25 C; EMSA: 50 mM HEPES, 50 mM NaCl, 5% glycerol, 20 mM MgCl2, 0.01% Tween 20, 37 C 15 min, 10 nM probe
- MEASUREMENT CONDITIONS: protein: recombinant; tags: His; blunt
ENDPOINT NAME: Kd

Task: So what's the measured Kd for this one? dsRNA (dsRNA) RNA 1: GGACAAGAUGCCUUAUGUGG RNA 2: CCACAUAAGGCAUCUUGUCC
Result: ~200 µM
